# measurement.description: Solubility of the compound at pH 2
# Format: physicochemical
# study.conditions: buffer
recorded.metric: solubility (µM)
Numeric answer only, unit µM assumed.

query: Fill in: solubility of COc1cc(-c2cn(C3CCc4c(F)cccc4N(CC(F)(F)F)C3=O)nn2)ccc1-n1cnc(C)c1 (stereo unspecified) is ___
result: 180

----------
# system.tested: UniProt P11712
# Sequence (P11712 whole entry): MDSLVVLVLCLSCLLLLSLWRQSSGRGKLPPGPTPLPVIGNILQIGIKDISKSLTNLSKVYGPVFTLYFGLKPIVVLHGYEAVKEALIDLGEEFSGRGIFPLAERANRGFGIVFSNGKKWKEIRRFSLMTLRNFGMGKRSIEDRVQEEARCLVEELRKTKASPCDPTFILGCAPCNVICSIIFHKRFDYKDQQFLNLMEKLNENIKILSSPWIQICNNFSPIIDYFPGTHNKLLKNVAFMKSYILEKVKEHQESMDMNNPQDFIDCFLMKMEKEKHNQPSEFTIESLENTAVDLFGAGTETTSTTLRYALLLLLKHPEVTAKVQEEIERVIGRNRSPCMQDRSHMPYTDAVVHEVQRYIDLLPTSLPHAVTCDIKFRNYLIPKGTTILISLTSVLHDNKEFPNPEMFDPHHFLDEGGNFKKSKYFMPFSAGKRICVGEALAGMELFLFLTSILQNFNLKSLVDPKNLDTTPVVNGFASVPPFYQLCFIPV
# measurement.description: Inhibition of CYP2C9 (unknown origin) at 10 uM
# Type: ADME
recorded.metric: inhibition at 10 µM (%)
Numeric answer only, unit % assumed.

query: Fill in: inhibition at 10 µM of COc1cc(-c2cn(C3CCc4c(F)cccc4N(CC(F)(F)F)C3=O)nn2)ccc1-n1cnc(C)c1 (stereo unspecified) [GSM1] is ___
result: 68

----------
# measurement.description: Half life in human hepatocytes
# Format: ADME, cell-based, Hepatocyte
recorded.metric: half-life
Kindly report the value followed by its unit.

query: Fill in: half-life of COc1cc(-c2cn(C3CCc4c(F)cccc4N(CC(F)(F)F)C3=O)nn2)ccc1-n1cnc(C)c1 (stereo unspecified) [GSM1] is ___
result: 1.02 h

----------
# measurement.description: Volume of distribution at steady state in dog at 0.25 mg/kg, iv and 0.5 mg/kg, po
# Type: ADME, organism-based, Canis lupus familiaris
# study.conditions: in vivo, read-out: Vdss
recorded.metric: Vd (L/kg)
Numeric answer only, unit L/kg assumed.

query: Fill in: Vd of COc1cc(-c2cn(C3CCc4c(F)cccc4N(CC(F)(F)F)C3=O)nn2)ccc1-n1cnc(C)c1 (stereo unspecified) [GSM1] is ___
result: 14

----------
# measurement.description: Solubility of the compound at pH 7
# Assay type: physicochemical
# study.conditions: buffer
recorded.metric: solubility (µM)
Numeric answer only, unit µM assumed.

query: Fill in: solubility of COc1cc(-c2cn(C3CCc4c(F)cccc4N(CC(F)(F)F)C3=O)nn2)ccc1-n1cnc(C)c1 (stereo unspecified) is ___
result: 5.6

----------
# system.tested: UniProt:P08684
# measurement.description: Inhibition of CYP3A4 (unknown origin) at 10 uM
# Assay type: ADME
recorded.metric: inhibition at 10 µM

query: Return inhibition at 10 µM measured with UniProt:P08684 given this molecule: COc1cc(-c2cn(C3CCc4c(F)cccc4N(CC(F)(F)F)C3=O)nn2)ccc1-n1cnc(C)c1 (stereo unspecified)
result: 42%

----------
# system.tested: Gamma-secretase
# measurement.description: Inhibition of gamma-secretase in human SH-SY5Y cells expressing beta-APP C-terminal fragment SPA4CT assessed as decrease of amyloid beta-40 level by electrochemiluminescent method
# Format: cell-based
Each entry falls in a class defined on IC50; the bands are low value = under 200 nM, medium value = from 200 nM up to 4000 nM, high value = 4000 nM and over

Use the examples below as a reference point.
molecule	system.tested	category
COc1cc(-c2cn(C3CCc4ccccc4N(CCF)C3=O)nn2)ccc1-n1cnc(C)c1 (stereo not drawn)	Gamma-secretase	medium value
COc1cc(-c2cn(C3CCc4c(ccc5ccccc45)N(CC(F)(F)F)C3=O)nn2)ccc1-n1cnc(C)c1 (stereo not drawn)	Gamma-secretase	low value
COc1cc(-c2cn(C3CCc4ccccc4N(CC(F)F)C3=O)nn2)ccc1-n1cnc(C)c1 (stereo not drawn)	Gamma-secretase	medium value
COc1cc(-c2cn(C3(C)CCc4ccccc4N(CC(F)(F)F)C3=O)nn2)ccc1-n1cnc(C)c1 (stereo not drawn)	Gamma-secretase	high value

query: Which class does COc1cc(-c2cn(C3CCc4cccnc4N(CC(F)(F)F)C3=O)nn2)ccc1-n1cnc(C)c1 (stereo not drawn) fall in?
result: medium value

query: And then COc1cc(-c2cn(C3CCc4c(F)cc(F)cc4N(CC(F)(F)F)C3=O)nn2)ccc1-n1cnc(C)c1 (stereo not drawn) , what is it?
result: low value

query: And then COc1cc(-c2cn(C3CSc4ccccc4N(CC(F)(F)F)C3=O)nn2)ccc1-n1cnc(C)c1 (stereo not drawn) , what is it?
result: medium value

query: And then COc1cc(-c2cn(C3CCc4ccccc4N(Cc4cccnc4)C3=O)nn2)ccc1-n1cnc(C)c1 (racemic) , what is it?
result: high value

----------
log10 IC50 data for UniProt Q12809 follow.
Sequence (Q12809 whole entry): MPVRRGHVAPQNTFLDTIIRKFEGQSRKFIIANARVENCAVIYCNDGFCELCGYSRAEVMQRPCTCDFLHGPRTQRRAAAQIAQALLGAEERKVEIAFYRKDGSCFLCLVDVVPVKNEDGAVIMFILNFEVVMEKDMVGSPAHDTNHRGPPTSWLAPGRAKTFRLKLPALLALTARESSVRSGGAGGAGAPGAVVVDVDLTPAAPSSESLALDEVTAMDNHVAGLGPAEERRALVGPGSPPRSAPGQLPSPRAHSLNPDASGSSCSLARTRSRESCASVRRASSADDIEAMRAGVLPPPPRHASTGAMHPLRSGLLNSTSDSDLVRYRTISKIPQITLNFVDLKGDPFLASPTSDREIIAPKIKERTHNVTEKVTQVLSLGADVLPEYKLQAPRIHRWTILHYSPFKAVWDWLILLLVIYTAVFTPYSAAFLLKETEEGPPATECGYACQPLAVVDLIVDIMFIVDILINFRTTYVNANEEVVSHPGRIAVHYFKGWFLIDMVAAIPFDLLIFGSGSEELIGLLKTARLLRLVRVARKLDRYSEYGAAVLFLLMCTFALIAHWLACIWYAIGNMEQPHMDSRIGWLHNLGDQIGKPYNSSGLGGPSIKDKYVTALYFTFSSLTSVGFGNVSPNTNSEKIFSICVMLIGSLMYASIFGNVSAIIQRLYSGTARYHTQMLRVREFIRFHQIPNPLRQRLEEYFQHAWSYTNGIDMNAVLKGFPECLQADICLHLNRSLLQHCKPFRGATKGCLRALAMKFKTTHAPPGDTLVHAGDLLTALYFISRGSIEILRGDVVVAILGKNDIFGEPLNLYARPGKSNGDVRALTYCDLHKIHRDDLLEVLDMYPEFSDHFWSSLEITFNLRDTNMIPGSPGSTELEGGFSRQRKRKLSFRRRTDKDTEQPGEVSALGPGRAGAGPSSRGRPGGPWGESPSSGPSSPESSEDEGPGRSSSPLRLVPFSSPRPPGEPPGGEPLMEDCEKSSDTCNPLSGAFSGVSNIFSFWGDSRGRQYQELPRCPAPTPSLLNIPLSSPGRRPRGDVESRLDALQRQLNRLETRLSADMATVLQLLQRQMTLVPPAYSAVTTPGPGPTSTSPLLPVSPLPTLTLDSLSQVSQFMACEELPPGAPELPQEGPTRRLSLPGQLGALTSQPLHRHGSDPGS
Base-10 log of IC50, unit µM.

query: Fill in: log10 IC50 of "COc1cc(-c2cn([C@H]3C[C@H](C)c4ccccc4N(CC(F)(F)F)C3=O)nn2)ccc1-n1cnc(C)c1" is ___
result: 0.82

query: And then COc1cc(-c2cn(C3CCc4cccnc4N(CC(F)(F)F)C3=O)nn2)ccc1-n1cnc(C)c1 (stereo not drawn) , what is it?
result: 0.94

query: And then COc1cc(-c2cn(C3CCc4c(F)cccc4N(CC(F)(F)F)C3=O)nn2)ccc1-n1cnc(C)c1 (stereo not drawn) , what is it?
result: 0.42

query: And then COc1cc(-c2cn(C3CCc4cc(F)ccc4N(CC(F)(F)F)C3=O)nn2)ccc1-n1cnc(C)c1 (stereo not drawn) , what is it?
result: 0.43

----------
# system.tested: CYP3A4 (Homo sapiens, UniProt P08684)
# Sequence (P08684 whole entry): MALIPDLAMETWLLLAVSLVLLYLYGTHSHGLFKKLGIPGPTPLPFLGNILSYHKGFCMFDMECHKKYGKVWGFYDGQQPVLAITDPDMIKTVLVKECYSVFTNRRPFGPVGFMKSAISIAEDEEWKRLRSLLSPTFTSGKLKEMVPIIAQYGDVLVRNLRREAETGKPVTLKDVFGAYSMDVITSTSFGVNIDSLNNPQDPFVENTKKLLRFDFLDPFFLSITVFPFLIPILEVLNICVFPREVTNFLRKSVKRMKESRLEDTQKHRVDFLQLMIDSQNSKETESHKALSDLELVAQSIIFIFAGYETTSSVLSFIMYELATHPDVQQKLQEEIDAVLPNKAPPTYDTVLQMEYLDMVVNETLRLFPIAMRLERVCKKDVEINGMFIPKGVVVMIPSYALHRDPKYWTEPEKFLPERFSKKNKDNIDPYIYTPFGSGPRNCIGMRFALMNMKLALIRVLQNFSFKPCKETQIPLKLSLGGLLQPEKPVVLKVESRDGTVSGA
# measurement.description: Time dependent inhibition of CYP3A4 (unknown origin) at 50 uM
# Format: ADME
recorded.metric: inhibition at 50 µM (%)
Numeric answer only, unit % assumed.

query: Fill in: inhibition at 50 µM of COc1cc(-c2cn(C3CCc4c(F)cccc4N(CC(F)(F)F)C3=O)nn2)ccc1-n1cnc(C)c1 (stereo unspecified) is ___
result: 18

----------
# measurement.description: Half life in rat liver microsomes
# Format: ADME
recorded.metric: half-life

compound	half-life
COc1cc(-c2cn(C3CCc4ccccc4N(CC(F)(F)F)C3=O)nn2)ccc1-n1cnc(C)c1 (configuration not stated)	35 min

Next item in the queue.
query: Fill in: half-life of "COc1cc(-c2cn([C@H]3C[C@H](C)c4ccccc4N(CC(F)(F)F)C3=O)nn2)ccc1-n1cnc(C)c1" is ___
result: 72 min

----------
Below is a list of entries, each paired with its recorded pIC50 value.
# system.tested: Gamma-secretase
# measurement.description: Inhibition of gamma-secretase in human SH-SY5Y cells expressing beta-APP C-terminal fragment SPA4CT assessed as decrease of amyloid beta-40 level by electrochemiluminescent method
# Type: cell-based
API: returns pIC50 as number; meaning -log10 of concentration in mol/L.

Example entries begin here.
compound	measurement
COc1cc(-c2cn(C3CCc4ccccc4N(Cc4ccccn4)C3=O)nn2)ccc1-n1cnc(C)c1 (racemic)	5.27
COc1cc(-c2cn(C3CC[C@@H]4CCCC[C@H]4N(Cc4ccccc4)C3=O)nn2)ccc1-n1cnc(C)c1 (stereo partly drawn)	6.33

query: Fill in: pIC50 of COc1cc(-c2cn(C3CCc4ncccc4N(CC(F)(F)F)C3=O)nn2)ccc1-n1cnc(C)c1 (stereo not drawn) is ___
result: 6.03

----------
# measurement.description: Volume of distribution at steady state in Sprague-Dawley rat at 1 mg/kg, iv and 2 mg/kg, po
# Assay type: ADME, organism-based
# study.conditions: in vivo, read-out: Vdss
recorded.metric: Vd (L/kg)
Numeric answer only, unit L/kg assumed.

query: Fill in: Vd of COc1cc(-c2cn(C3CCc4c(F)cccc4N(CC(F)(F)F)C3=O)nn2)ccc1-n1cnc(C)c1 (stereo unspecified) is ___
result: 4.8

----------
# system.tested: Gamma-secretase
# measurement.description: Inhibition of gamma-secretase in human SH-SY5Y cells expressing beta-APP C-terminal fragment SPA4CT assessed as decrease of amyloid beta-42 level by electrochemiluminescent method
# Assay type: cell-based
Below is a list of entries, each paired with its recorded pIC50 value.
API: returns pIC50 as number; meaning -log10 of concentration in mol/L.

Example entries begin here.
compound	system.tested	recorded.metric	measurement
COc1cc(-c2cn(C3CCc4c(ccc(Br)c4F)N(CC(F)(F)F)C3=O)nn2)ccc1-n1cnc(C)c1 (stereo not drawn)	Gamma-secretase	pIC50	8.00
COc1cc(-c2cn(C3CSc4ccccc4N(CC(F)(F)F)C3=O)nn2)ccc1-n1cnc(C)c1 (stereo not drawn)	Gamma-secretase	pIC50	7.22
COc1cc(-c2cn(C3CCc4c(ccc5ccccc45)N(CC(F)(F)F)C3=O)nn2)ccc1-n1cnc(C)c1 (stereo not drawn)	Gamma-secretase	pIC50	7.52
COc1cc(-c2cn(C3CCc4ccccc4N(Cc4ccccn4)C3=O)nn2)ccc1-n1cnc(C)c1 (racemic)	Gamma-secretase	pIC50	5.97
COc1cc(-c2cn([C@H]3C[C@H](C)c4ccccc4N(CC(F)(F)F)C3=O)nn2)ccc1-n1cnc(C)c1	Gamma-secretase	pIC50	7.40
COc1cc(-c2cn(C3(C)CCc4ccccc4N(CC(F)(F)F)C3=O)nn2)ccc1-n1cnc(C)c1 (stereo not drawn)	Gamma-secretase	pIC50	6.24

query: Fill in: pIC50 of COc1cc(-c2cn(C3CCc4cccnc4N(CC(F)(F)F)C3=O)nn2)ccc1-n1cnc(C)c1 (stereo not drawn) is ___
result: 6.74

query: And then COc1cc(-c2cn(C3CCc4ccccc4NC3=O)nn2)ccc1-n1cnc(C)c1 (stereo not drawn) , what is it?
result: 6.41
